assay_info: yeast display, Sf9 membrane polyspecificity reagent, FACS + sequencing; frameworks hold sequencing errors
property_measured: polyreactivity (PSR sort gate)

sequence_text	observed_result
QVQIVESGGGLVQAGGSLRLSCAASGSTFTIYAMGRYRQAPGKERELVAAISSGGSTYYADSVKGRFTISRDNAKNTVYLQMNSLKPEDTAVYYCAARVYLSGYGYNYWGQGTQVTVSS	high polyreactivity
QVQLVESGGGLVQAGGSLRLSCAASGSIFTYYTMGWYRQAPGKERELVAAIRWSAGRTYYADSVKGRFTISRDNAKNTVYLQMNSLKPEDTAVYYCAAAERLRHGLKFDYWGQGTQVTVSS	high polyreactivity
QVQLVESGGGLVQAVGSLRLSCAASGSTFPRYAMRWYRQAPGKERELVAAISRSGGSTYYADSVKGRFTISRDNATNTVYLQMNSLKPEDTAVYYCAARDDRGSYKYDYWRQGTQVTVSS	high polyreactivity

====

assay_info: yeast display, Sf9 membrane polyspecificity reagent, FACS + sequencing; frameworks hold sequencing errors

sequence_text	polyreactivity (PSR sort gate)
QVQLVESGGGLVQAGGSLRLSCAASGFTLDYYAMGWYRKAPGKERELVAAISFSGGSTYYADSVKGRFTISRDNAKNTVYLQMNSLKPEDTAVYFCAADPQIVWYDYWGQGTQVTVSS	low polyreactivity
QVQLVESGGGLVQAGGSLRLSCAASGFIFPSYVMGWYRQAPWKERELVATISHSGGSTYYADSVKGRFTLSRDNAKNTVYLQMNSLKPEDTAVYYCATRRRGPYSPYSPYDYWGQGTQVTVSS	high polyreactivity
QVQLVESVGGLLQAGGSLRLSCAASGRIFTGYAMGWYRQAPGKERELVAAISSRGGSTYYADSVKGRFTISRDNAKNTVYLQMNSLKPEDTAVYYCNAYQWRHRYTMYYWGQGTQVTVSS	high polyreactivity
QVQLVESGGGLVQAGGSLRLSCAASGFTFRSNAMGWYRQAPGKERELVAAISYSGGDTYYADSVKGRFTISRDNAKNTVFLQMNSLKPEDTAVYYCAADDPASPLGEYWGQGTQVTVSS	low polyreactivity
QVQLVESGGGLVHAGGSLRLSCAAAGFTFTYYTMGWYRKAPGKERELVAAITENGGSTYYADSVKWRFTISRDNAKNTVYLQMKSLKPEDPAVYYCNARVWDYGGHGYDYWGQGTQVTVSS	low polyreactivity

====

assay_info: yeast display, Sf9 membrane polyspecificity reagent, FACS + sequencing; frameworks hold sequencing errors

sequence_text	polyreactivity (PSR sort gate)
QVQLVESGGGLVQAGGSLRLSCAASGFIFTTNAMGWYRQAPGKERELVAAITRSGGSTYADSVKGRFTISRDNAKNTVYLQMNSLKPEDTAVYYCNADWAGVYTSYEYDYWGQGTQVTVSS	low polyreactivity
QVQLVESGGGLVQAGGSLRLSCAASGSIFEEYAMGWYRHAPGKERELVARIDESGGSTYYADSVKGRFTISRDNAKNTVYLQMNSLKPEDTAVYYCAAERYSDSWGYYSVDEGSWEMDYWGQGTQVTVSS	low polyreactivity
QVQLVESGGGLVQAGGSLRLSCAASGRTFRQYAMGWYRQAPGKERELVARIRWRGGTTYYADSVKGRFTISRDNAKNTVYLQMISLKPEDTAVYYCAADKYGTEYDYWGQGTQVTVSS	high polyreactivity
QVQLVESGGGLVQAGGSLRLSCAVSGRIFRRNVMGWYRQAPGKERELVAGSSYSGDSTYYADSVKGRFTISRDNAKNTVYLQMNRLKPEDTAVYYCAAALAHYRGMYYWGQGTQVTVSS	high polyreactivity
QVQLVESGGGLVQAGGSLRLRCAASGLTYSNAMGWYRQAPGKERELVAAISWRGGRTYYADSVKGRFTISRDNAKNTVYLQMNSLKPEDTAVYYCAKYAHGHKWYGYWGQGTQVTVSS	low polyreactivity
QVQLVESGGGLVQAGGSLRLSCAASGSIFSSNAMGWYRQAPGKERELVAAIDYSGGRTYYADSVKGRFTISRDNAKNTVYLQMNSLKPEDTAVYYCAKLIPVHSRYDYWGQGTQVTVSS	low polyreactivity
QVQLVESGGGLVQAGGSLRLSCAASGRTFSYYAMGWYRQAPGKERELVAAITSGGGRTYYADSVKGRFTISRDNAKNTVYLQMNSLKPEDTAVYYCNKAYVSRYDYWGQGTQVTVSS	high polyreactivity
QVQVVESGGGLVQAGGSLRLSCAASGRTFIGNAMGWYRQAPGKERELVAAMSRSGGSTSYADSVKGRFTISRDNAKNTVYLQMNSLKPEDTAVYYCAKGYRGYSYGYWGQGTQVSVSS	high polyreactivity
QVQLVESCGGLVQAGGSLRLSCAASGSTFRYYPMGWYRPATGKETELVASISIGGGSTYYADSVKGRFTISRDHAKNTVYLQMNSLKPEDTAGYYCAAERTIRAARPFFRTFDYWGQGTQVTVSS	low polyreactivity
QVQLVESGGGLVQAGGSLRISCAASGSPIWNYVMRWYRKAPGKVRDLVAAISIVGSTYYADSVKGRFTSSRDNAKNTVYFELNILKPEDTAVNYCNAGYFGGSNASKVRLSYDHWGQGTDVTVSS	low polyreactivity
QVQLVESGGGLVQAGGSLRLSCAASGRTFSGNTMGWYRQAPGKERELVAVINSGTRTYYADSVKGRFTISRDNAKNTVYLHMNSLKPEDTAVYYCATRSKSPSTKYGYWGQGTQVTVSS	high polyreactivity
QVQLVESGGGLVQAGGSLRLSCAASGNIFADYVMGWYRQAPGKERELVAAIDKSGGRTYYADSVKGRFTISRDNAKNTVYLQMNSLKPEDTAVYYCSAYDRYRRMDYWGQGTQVTVSS	high polyreactivity
QVQLVESGGGLVQAGGSLRLSCASSGLIFVVYAMGWYRQAPGKERELVAAISTSGDRTYYADSVKGRFTISRDNAKNTVYLLMNSLKPEDTAVYYCAAGRRKVPYCREYYYWGQVTQVTVSS	high polyreactivity
QVQLVDSGGGLVQAGGSLRLTSAASGRIFVRNAMGWYRPAPGKERELVAASSWSSGGTYYADSVKGRFTISRDNAKNRVYLQMNSLKPEETAVYSCIADTSRAGVYWGQGTQVTVSS	low polyreactivity
QVQLVESGGGLVQAGGSLRLSCAASGFIFSQNAMGWYRQAPGKERELVAAITSGGGTNYADSVKGRFTISRDNAKNTVYLQMNSLKPEDTAVYYCAADDEKRYSYQTYFERDYWGQGTQVTVSS	low polyreactivity
QVQLVESGGGLVQAGGSLRLSCAASGRIFEHNAMGWYRQAPGKEREFVAAISSSGGSTYYADSVKGRITISRDNAKNTVYLQMNSLKPVDTAVYYCNAGSTYYERNYWGQGTQVTVSS	low polyreactivity
QVQHVESGGGLVQAGGSLRLSCAASGSIFTVYAMGWYRQAPGKERELVAGITSGGNTNYADSVKGRFTISRDNAKNTVYLQMNSLKPEDTAVYYCAARIYGYVTYGYWGQGTQVTVSS	low polyreactivity
QVQLVESGGGLVQAGGSLRLSCAASGSIFWQYAMGWYRQAPGTERELVAAISSRGGSTYYADSVKGRFTISRDNAKNTVYLQMNTLKPEDTAVYYCAAHSVVRSYAARDSGYDYWGQGTQVTVSS	high polyreactivity
QVQLVESGGGLVQAGGSIRLSCAASGFTIFLNAMGWYRQAPGKERELVAAITVSGSSTYYADSVKGRFTISRDNAKNTVYLQMNSLKPEETAVYYCNAEIYSPYYTYDYWGQGTQVTVSS	low polyreactivity
QVQLVESGGGLVQAGGSLRLSCAASGSIFVNNAMGWYRQAPGKERELVAAISRSGTRTYYADSVKGRFTISRDNAKNTVYLQMNSLKPEDTAVYYCAVDYYYRMDYWGQGTQVTVSS	high polyreactivity
QVQLVESGGGLVQAGGSLRLSCAASGRTFWNYAMGWYRQAPGKERELVAVIRFSDGSTYYADSVKGRFTISRDNAKNTVYLQMKSLKPEDTAVYYCGAKGQRRWGSGFDYWGQGTQVTVSS	low polyreactivity

====

assay_info: yeast display, Sf9 membrane polyspecificity reagent, FACS + sequencing; frameworks hold sequencing errors

sequence_text	polyreactivity (PSR sort gate)
QVQLVESGGGLVQAGGSLRLSCAASGSIFSAYAMGWYRQAPGKEREFVASITWSGGSTYYADSVKGRFTISRDNAKNTVYLQMNSLKPEDTAVYYCAAVYVTWYNNYEYWGQGTQVTVSS	high polyreactivity
QVQLVESGGGLVQAGGSLRLSCAASGFTFRAYAMGWYRQAPGKERELVAAITRSGVSTYYADSVKGRFTISRDNAKNTVYLQMNSLKPEDTAVYYCAAVAQRVGRSGTIEGDSWGQGTQVTVSS	high polyreactivity
QVQLQDSGGGLEQAGGSLRMSCAANGNIFDADIVGRYRQAQGKKRELVASITDGGITNYADSVKGRFTISRDNAKYTVYLQMNSQNPEDTAVYYCAAIAYPDIPTYFDYDSDFFYWGQGTQVTVSS	high polyreactivity
QDQLVESRAGLVQAGGSLRLSCADTGNIFDFNAIGSYRQAPGKERELVAAISQRGTRTYYADSVKGRFTISRDNAKNTVYLQMKSLKPDYTAVYYCNRGGWRQYDSWGQGTQVTVSS	high polyreactivity
QVQLVESGGGLVQAGGSLRLSCAASGRTFNHNPMRWYRQAPGKERELVAAISYSGGGTYYADSVKGRFTFSRDNAKNSVYLQMNSLKPEDTAVYFCAAYPVRGAYGYWGQGTQVTVSS	low polyreactivity
QVQLVESGGGLDQAGGSHRLSCAASGFTFSGYAMGWYRQAPGTESELVAAMTRRGGSTYYADSVKGRFTISRDNAKNTVYLHLNSLKPEDTAVYYCAADSGYPWELDYWGQGTQVTVSS	low polyreactivity
QVQLVESGGGLVQAGGSLRLSCADSGRTFVGNAMGWYRQAPGKGWEFVAAISRSGGSTNYADSVKGRFTISRDNAKNTVYLQMKSLKPEDTAVYYCAARDRFGGIRRYIYWGQGTQVTVSS	high polyreactivity
QFQLVESGGGLVQAGGSLRLSCAASGRIFDTYVMRWYRQAPGKERDLVAAISGSGGSTYYAYSVKGRFTISRDNAKNTVYLQMNSLKPEDTEVYYCAAARRYYAYRYDYWGQGTQVTVSS	high polyreactivity
QVQLVESGGGLVQAGGSLRLSCAASGTTFYNYAMGWYRQAPGKERELVAAITSSGGSTYYADSVKGRFTISRDNAKNTVYLQMNSLKPEDTAVYYCNAVDGYGLVHSISTYEMDYWGQGTQVTVSS	low polyreactivity
QVQLVESGGGLVQAGGSLRLSCAASGYIFVYYVMGWYRQAPGKERELVTAIDGNGVSTYYADSVKGRFSISRDNAKYSVYLQMNSLKPDDTAVYYCAADYLYHQTSRGKYYSWGQGTQVTVSS	low polyreactivity
QVHLVESGGRLVQAGGSLRLSCAESGFTFGSNVKGAYRQAPGKEREFVDAITSSGRTKYADSVKGRFTISRDNAKNTVYLQMNSLKPEDTAVYYCAARPSQWNYDYRRVYYWVQGTQVTVSS	high polyreactivity
QVQLVESGGGLVQAGGSLRLSCAASGSTFLRNAMGWYRQAPGKERELVAAISWSAGSTYYADSVKGRFTISRDNAKNTVYLQMNSLKPEDTAVYYCAVDKYVFVSYSFYFEYDYWGQGTQVTVSS	low polyreactivity
QVQLVESGGGLVQAGGSLRLICDASGLTFIRNAMGCYRQATGKERELVAAITRRGGSTYYADSVKGRFTISRDNAKNTVYLQMHSLQPEDTPVDYCARRLYPSASYDYDYWGQGTQETVSS	high polyreactivity
QVQLVESGGGLVQAGGSLRLSCAASGRTFNYYAMGWYRQAPGKERELVAAISWSGTPTYYADSVKGRFTISRDNAKNTVYLQMNSLKPEDTAVYYCAAYLVSYPRGNYIRYDYWGQGTQVTVSS	low polyreactivity
QVQLVESGGGLVQAGGSLRLSCAASVFIFGYYAMGWYRQAPGKERELVADISWSGVSTYYADSVKGRFTISRDNAKNTVYLQMNSLKPEDNAVYYCAVGYVLTGVFQARFDYWGQGTQVTVSS	high polyreactivity
QVQLVESGGGLVQAGGSLRLSCAASGRIFYYNAMGWYRQAPGKERELVAAISTRGTSTYYADSVKGRFTISRDNAKNTVYLQMNSLKPEDTAVYYCNRASGNWQSYLRYDYWGQGTQVTVSS	low polyreactivity
QVQLQEGRGLVQAGGSLRLSSAASGYISSRPAMGWYRQAPCKERSFVATIADGTSTYYADSVKGRFTISRDNAINTVYLQMNSLKPEDTAVYYCAAAYNTEFYLSYWGQGTQVTVSC	high polyreactivity
QVQLVESGGGLVQAGGSLRLSCAASGFIFRGYAMGWYRQPPGKERELVATITNGGSTYYADSVKGRFTISRDNAKNTVYLQMNSLKPEDTAVYFCAAVTKFGEYAPGSKGYGYWGQGSQVTVSS	low polyreactivity
QVQLVESGGGLVQAGGSLRLSCAASGRIFGTYAMGWYRQAPGKERELVATISYSSGRTYYADSVKGRFTISRDNAKNTVYFQMNSLKPEDTAVYYCARRRRSGSRQYYYWGQGTQVTVSS	high polyreactivity
QVQLVESCGGLVQAGGSLRLSCAASGFIFLPYVMGWYRQAPGKERELVAAISGGGGITYYADSVKGRFTISRDNAKNTVYLQMNSLKPEDTAVYYCAAERPVAPYDYWGQGTQVTVSS	low polyreactivity
QVQLVESGGGLVQAGGSLRLSCAASGIIFGTYAMGWYRQAPGKERELVAAISSGGRTYYADSVKGRFTISRDNAKNTVYLQMNSLKPEDTAVYYCNRPPWSRGSNYWGQGTQVTVSS	high polyreactivity
